Recorded values, source paper PMC7098970.

Tested on: glycine receptor (GlyR)
Test: Glycine-induced chloride current (IGly), whole-cell patch-clamp in isolated pyramidal neurons of the rat hippocampus
Type: cell-based
Settings: Hill fit, time constant of desensitization; 100 μM glycine
Description: All experiments were conducted per the requirements of the Ministry of Public Health of the Russian Federation and were consistent with the EU directive for Use of Experimental Animals of the European Community. […] Isolated neurons were patch clamped and then lifted into the outflow of the control bath solution. […] Transmembrane currents were recorded using a conventional patch-clamp technique in the whole-cell configuration. […]
Mark 1 for reported τdes max (maximum inhibition attainable) of IGly of 0.9 or greater; mark 0 for anything smaller.

These recorded examples may help you get a feel for the data.
compound	assayed-target	cat
C[C@]12CCC(=O)C=C1CC[C@@H]1[C@@H]2CC[C@]2(C)C(=O)CC[C@@H]12 [Compound 2, Androst-4-en-3,17-dione]	glycine receptor (GlyR)	1
C[C@]12CCC(=O)C[C@@H]1CC[C@@H]1[C@@H]2CC[C@]2(C)C(=O)CC[C@@H]12 [Compound 6, 5α-Androstane-3,17-dione]	glycine receptor (GlyR)	0

Query :: Is reported τdes max (maximum inhibition attainable) of IGly greater than or equal to 0.9 here: C[C@]12CC[C@H]3[C@@H](CCC4=CC(=O)CC[C@@]43C)[C@@H]1CC[C@H]2O [Compound 5, 17α-Hydroxyandrost-4-en-3-one]
Result :: 0

Query :: Record C[C@]12CC[C@H]3[C@@H](CCC4=CC(=O)CC[C@@]43C)[C@@H]1CC[C@@H]2O [Compound 1, 17β-Hydroxyandrost-4-en-3-one] ; criterion: τdes max (maximum inhibition attainable) of IGly no lower than 0.9. Met?
Result :: 0

Query :: Is τdes max (maximum inhibition attainable) of IGly at least 0.9? Consider C[C@]12CCC(=O)C[C@H]1CC[C@@H]1[C@@H]2CC[C@]2(C)C(=O)CC[C@@H]12 [Compound 9, 5β-Androstane-3,17-dione]
Result :: 0
